target-desc: T1, hCD38 Fc fusion protein (aa 45-300) (human, UniProt P28907 45-300)
T1 construct: produced in HEK293; also called full-length hCD38 Fc-fusion protein; soluble CD38-Fc
T1 sequence (P28907 45-300 limits assumed): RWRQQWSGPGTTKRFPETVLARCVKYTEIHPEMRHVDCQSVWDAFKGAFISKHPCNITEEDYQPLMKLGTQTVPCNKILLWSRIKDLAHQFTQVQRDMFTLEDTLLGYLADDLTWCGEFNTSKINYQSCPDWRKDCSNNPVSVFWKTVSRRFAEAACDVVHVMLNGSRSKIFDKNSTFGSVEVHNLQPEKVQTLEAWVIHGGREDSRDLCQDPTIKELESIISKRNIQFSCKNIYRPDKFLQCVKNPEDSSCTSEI
procedure-text: SPR (Biacore 3000), Fab over directly immobilized CD38-Fc fusion protein; mean of at least 2 determinations
pKd: −log10 of the molar value.
quantity-name: pKd

binder | readout-number
MOR03079 Fab (Fab, V domains shown, also called antibody no) VH: QVQLVESGGGLVQPGGSLRLSCAASGFTFSNYGMHWVRQAPGKGLEWVSNIRSDGSWTYYADSVKGRFTISRDNSKNTLYLQMNSLRAEDTAVYYCARRYWSKSHASVTDYWGQGTLVTVSS VL: DIQMTQSPSSLSASVGDRVTITCRASQDISAFLNWYQQKPGKAPKLLIYKVSNLQSGVPSRFSGSGSGTDFTLTISSLQPEDFATYYCQQAYSGSITFGQGTKVEIKR | 8.62
